Value source: ChEMBL document CHEMBL1140816

STUDY_TARGET: Melanocortin receptor 4 (Homo sapiens)
Sequence (P32245 whole entry): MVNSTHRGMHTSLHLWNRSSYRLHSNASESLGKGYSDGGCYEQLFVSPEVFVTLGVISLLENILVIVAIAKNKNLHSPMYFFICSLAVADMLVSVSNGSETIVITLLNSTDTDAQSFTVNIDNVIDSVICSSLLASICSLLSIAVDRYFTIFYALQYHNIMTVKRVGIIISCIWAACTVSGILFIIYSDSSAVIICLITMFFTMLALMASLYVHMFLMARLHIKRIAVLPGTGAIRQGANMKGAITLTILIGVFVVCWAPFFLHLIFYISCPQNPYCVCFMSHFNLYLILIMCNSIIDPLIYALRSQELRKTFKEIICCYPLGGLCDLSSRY
METHOD_SUMMARY: Agonist activity at MC4R
RESULT_TYPE: EC50 (nM)

> print(dat)
                                 mol.smiles                            study.target  measurement.units  endpoint.result
1  CC(C)(C)N1C[C@H](C(=O)N2CCC(CN3CCOC3=O)(C3CCCCC3)CC2)[C@@H](c2ccc(F)cc2F)C1  Melanocortin receptor 4 (Homo sapiens)                 nM                2

----------
STUDY_TARGET: UniProt P32245
METHOD_SUMMARY: Displacement of [125I]NDP-MSH from human MC4R expressed in HEK293 cells
Assay type: cell-based
Listed here: items and their measured Ki.
RESULT_TYPE: Ki

> print(dat)
                                 mol.smiles  result.type  endpoint.result
1  Cc1ccc(N2CCN(C(=O)[C@@H]3CCO[C@@H]3c3ccc(Cl)cc3)CC2)c([C@@H](N)C(C)C)c1           Ki           590 nM
2  CC(C)[C@H](NC(=O)CCN(C)C)c1cccc(F)c1N1CCN(C(=O)[C@H]2COC[C@@H]2c2ccc(Cl)cc2)CC1           Ki            30 nM
3  Cc1ccc(N2CCN(C(=O)[C@H]3CCO[C@@H]3c3ccc(Cl)cc3)CC2)c([C@@H](N)C(C)C)c1           Ki           410 nM
4  CC(C)[C@H](NC(=O)CCN(C)C)c1cccc(F)c1N1CCN(C(=O)[C@@H]2CCO[C@@H]2c2ccc(Cl)cc2)CC1           Ki           480 nM
